assay_details: qHTS of pediatric cancer cell lines to identify multiple opportunities for drug repurposing: Confirmatory screen for BT-37 cells (AID 1347117);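 further: viability measured after 48 h of compound exposure; nearly all actives have a fitted effect of over 55% in size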
test_settings: BT-37 pediatric cancer cells, viability; series mostly up to 45.9 µM
Records with an inconclusive call do not appear. Activity calls are given as the source filed them. The call rests on the fitted dose curve; in most records, active means well fitted cell-killing curve with a large enough effect; inconclusive means small, poorly fitted or top-dose-only effect; inactive means no such curve, though single readings can be large or run the other way.
Valid outcomes are listed here; reply with one: Y for active, N for inactive

Record excerpt, results attached:
C[C@@H]1C[C@H]2[C@@H]3CCC4=CC(=O)C=C[C@]4(C)[C@@]3(F)[C@@H](O)C[C@]2(C)[C@@]1(O)C(=O)CO ... N
Cc1cnc(-c2cc(N3CCN(C(=O)CCS(C)(=O)=O)CC3)ncc2Cl)c(C)c1 ... Y

Lookup: Record request — test call for `C[C@@H]1[C@H](O)[C@@H](C)C=CC=CC=CC=CC=CC=CC=C[C@H](O[C@@H]2O[C@H](C)[C@H](O)[C@H](N)[C@@H]2O)C[C@@H]2O[C@](O)(C[C@@H](O)C[C@@H](O)[C@H](O)CC[C@@H](O)C[C@@H](O)CC(=O)O[C@H]1C)C[C@H](O)[C@@H]2C(=O)O`
Found: N

Lookup: Hi, sorry to bother you, what did the test record for `Nc1ncnc2c1ncn2[C@@H]1O[C@H](CO)[C@@H](O)[C@@H]1O` ?
Found: Y

Lookup: Tell me the assay call for CC1CNc2c(cccc2S(=O)(=O)N[C@@H](CCCN=C(N)N)C(=O)N2CC[C@@H](C)C[C@@H]2C(=O)O)C1 (some centres not stated) please.
Found: N

Lookup: Field: outcome | Entry: `COC(=O)[C@H](c1ccccc1Cl)N1CCc2sccc2C1`
Found: N

Lookup: Per the records of this test, what outcome belongs to `NC(N)=Nc1nc(CSCCC(N)=NS(N)(=O)=O)cs1` ?
Found: N

// data source = PubChem BioAssay (NCATS)
